Each record here notes measured concentration at 0.083 h.
experiment: Prodrug assay: plasma concentrations of prodrugs and demethylated parents after cassette dosing, LC-MS; format: in vivo, C57 Bl/6 mice; settings: C57 Bl/6, mouse, intravenous, i.v. cassette of prodrugs, nominal 1 mg/kg, solution, 0.083 h, read-out: Parent (demethylated compound) Conc. in plasma after prodrug dosing
Respond numerically; units are nM and should not be typed.

O=S(=O)(Cc1cc(Cl)cc(Cl)c1)Nc1ncc(Cl)cc1O; 44
O=S(=O)(Nc1cnc(Cl)cc1O)c1cc(Cl)sc1Cl; 89

Here is the next item to consider.
[in] Fill in the blank: the reported concentration at 0.083 h of O=S(=O)(Cc1ccc(Cl)c(Cl)c1)Nc1ncc(Br)nc1O is ____.
[out] 120

---

assay: Prodrug assay: plasma concentrations of prodrugs and demethylated parents after cassette dosing, LC-MS; assay type: in vivo, C57 Bl/6 mice; conditions: C57 Bl/6, mouse, oral, p.o. cassette of prodrugs, nominal 5 mg/kg, solution, 4 h, read-out: Parent (demethylated compound) Conc. in plasma after prodrug dosing
Outcome measure: concentration at 4 h (nM)
The response must be a number in nM with no trailing unit.

Observe how each entry below is paired with its result.
O=S(=O)(Cc1cc(Cl)cc(Cl)c1)Nc1ncc(Cl)cc1O [Example 9]; 12
O=S(=O)(Nc1cnc(Cl)cc1O)c1cc(Cl)sc1Cl [Example 73]; 610

Shifting focus to the compound that follows.
[in] I have this compound here, O=S(=O)(Cc1ccc(Cl)c(Cl)c1)Nc1ncc(Br)nc1O [Example 75] , and I need its recorded concentration at 4 h.
[out] 630

---

biological target: biotinylated human S100A9 : rhRAGE-Fc interaction (Homo sapiens (Human)); experiment: AlphaScreen inhibition assay, Biot-hS100A9:hRAGE-Fc (S100A9-RAGE inhibition assay)
As shown below, each of these compounds has a reported pIC50 value.
Kindly note that pIC50 refers to -log10 of the concentration in mol/L and answer with the value alone.

Past entries and their recorded results:
COc1ncc(S(=O)(=O)Nc2cncc(Cl)c2O)cc1Br; 5.55
O=S(=O)(Cc1ccc(Cl)c(Cl)c1)Nc1cc(Cl)cnc1O; 5.51

[in] // lookup pIC50 for CS(=O)(=O)c1nc(NS(=O)(=O)Cc2cc(Cl)cc(Cl)c2)c(O)cc1Cl
[out] 6.28

[in] Consider next the compound N#Cc1ccc(Cl)c(CS(=O)(=O)Nc2nnc(Cl)cc2O)c1 in the same way.
[out] 6.01

[in] Continue with O=S(=O)(Cc1cc(Cl)cc(Cl)c1)Nc1ncc(S(=O)(=O)C2CCCC2)cc1O
[out] 6.92

[in] Proceed to O=S(=O)(Cc1cc(F)cc(Cl)c1)Nc1nnc(Cl)cc1O
[out] 6.52

[in] And for N#Cc1cc(CS(=O)(=O)Nc2ncc(Cl)cc2O)cs1 ?
[out] 5.95

[in] Record: O=S(=O)(Nc1cnccc1O)c1cc(Cl)sc1Cl
[out] 5.34

[in] // query: O=S(=O)(Cc1ccc(Cl)c(Cl)c1)Nc1cnc(Cl)cc1O
[out] 6.10

[in] And what about the compound COc1ncc(S(=O)(=O)Nc2nnc(Cl)cc2O)cc1Br ?
[out] 6.00

[in] What do you get for CS(=O)(=O)c1cnc(NS(=O)(=O)Cc2cc(Cl)cc(Cl)c2)c(O)c1 ?
[out] 6.85

[in] // next record O=S(=O)(Nc1cncc(Cl)c1O)c1ccc(OC(F)(F)F)c(Cl)c1
[out] 5.66

[in] Record: O=S(=O)(Cc1cccc(Cl)c1)Nc1nnc(Cl)cc1O
[out] 6.39

[in] Could you do the same for N#Cc1cncc(NS(=O)(=O)Cc2cc(Cl)cc(Cl)c2)c1O , please?
[out] 5.41

---

target: biotinylated human S100A9 : rhRAGE-Fc interaction (Homo sapiens (Human)); assay: AlphaScreen inhibition assay, Biot-hS100A9:hRAGE-Fc (S100A9-RAGE inhibition assay)
Outcome measure: IC50 (nM)
Record the value in nM, omitting the unit from your answer.

O=S(=O)(Nc1nnc(Cl)cc1O)c1cc(Cl)cc(Cl)c1; 700

Here is another molecule to look at.
[in] Name the reported IC50 value associated with the molecule CS(=O)(=O)c1cnc(NS(=O)(=O)Cc2cc(Cl)cc(Cl)c2)c(O)n1
[out] 420

---

biological target: biotinylated human S100A9 : rhRAGE-Fc interaction (Homo sapiens (Human)); test: AlphaScreen inhibition assay, Biot-hS100A9:hRAGE-Fc (S100A9-RAGE inhibition assay)
pIC50: −log10 of the molar value.
Some molecules, each annotated with its measured pIC50.

N#Cc1cnc(NS(=O)(=O)Cc2cc(Cl)cc(Cl)c2)c(O)n1; > 6.00
O=S(=O)(Nc1ccnc(Cl)c1O)c1cc(Cl)cc(Cl)c1; > 6.00
O=S(=O)(Cc1cc(Cl)cc(Cl)c1)Nc1nnc(S(=O)(=O)CCCO)cc1O; > 6.00

[in] Give the reported pIC50 for COc1ccc(S(=O)(=O)Nc2cncc(Cl)c2O)cc1Cl (system: biotinylated human S100A9 : rhRAGE-Fc interaction (Homo sapiens (Human))).
[out] < 6.00

[in] Here is the next molecule: O=S(=O)(Nc1ncc(Br)nc1O)C(c1cc(Cl)cc(Cl)c1)C(F)(F)F (racemic)
[out] > 6.00

[in] Now give it for O=S(=O)(Cc1cc(Cl)cc(Cl)c1)Nc1ccncc1O too.
[out] > 6.00

[in] Now try O=S(=O)(Cc1cnc(N2CCCC2)c(Cl)c1)Nc1ccc(Cl)nc1O .
[out] > 6.00

[in] Check CS(=O)(=O)c1cc(O)c(NS(=O)(=O)c2cc(Cl)cc(Cl)c2)cn1 too.
[out] < 6.00

[in] Try this molecule too: O=S(=O)(Cc1ccc(C(F)(F)F)cc1)Nc1ccc(Cl)nc1O
[out] < 6.00

[in] Do the same for O=S(=O)(Cc1cc(Cl)cc(Cl)c1)Nc1cc(Cl)c(Cl)nc1O please
[out] > 6.00

[in] Repeat for the following molecule: CCCc1ccc(S(=O)(=O)Nc2ccc(Cl)nc2O)cc1
[out] > 6.00

---

molecular target: biotinylated human S100A9 : rhRAGE-Fc interaction (Homo sapiens (Human), UniProt P06702); test: AlphaScreen inhibition assay, Biot-hS100A9:hRAGE-Fc (S100A9-RAGE inhibition assay)
Sequence (P06702 whole entry): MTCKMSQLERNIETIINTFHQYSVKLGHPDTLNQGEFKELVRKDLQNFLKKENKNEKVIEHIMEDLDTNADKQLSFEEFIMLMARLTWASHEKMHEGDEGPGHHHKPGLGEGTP
Outcome measure: IC50

Solved entries (count: 2):
COc1ncc(CS(=O)(=O)Nc2ccc(Cl)nc2O)cc1Cl; < 1000 nM
O=S(=O)(Nc1ncc(Cl)cc1O)c1ccc(C(F)(F)F)nc1; > 1000 nM

[in] So what's the measured IC50 for this one? CC(C)c1cnc(NS(=O)(=O)c2cnc(Cl)c(Br)c2)c(O)c1
[out] > 1000 nM

---

target: biotinylated human S100A9 : rhRAGE-Fc interaction (Homo sapiens (Human)); experiment: AlphaScreen inhibition assay, Biot-hS100A9:hRAGE-Fc (S100A9-RAGE inhibition assay); format: binding
Outcome measure: IC50

The following compounds have reported results that may help.
CN(C)c1ncc(S(=O)(=O)Nc2ncc(Cl)cc2O)cc1S(C)(=O)=O; > 1000 nM
O=S(=O)(Nc1nnc(C(F)(F)F)cc1O)c1cc(F)cc(Cl)c1; > 1000 nM
O=S(=O)(Cc1ccc(F)c(F)c1)Nc1nnc(Cl)cc1O; < 1000 nM

Now turn to the next compound.
[in] Using the record for O=S(=O)(Cc1cc(Cl)sc1Cl)Nc1ncc(Cl)cc1O , report its IC50.
[out] < 1000 nM
